- Assay Notes: soluble fraction after stress (log2 fold change); higher = more stays soluble; pooled small domains, quantitative proteomics
- Conditions Used: stress: 50 degC
Reported Endpoint: soluble fraction (log2)

>>> assay_result("HMFTIGENIRDLRLERAITQEQLAEQLNVSAPAVSKWERGEAYPDITLVPKLAEILGVSTDKLFGVD")
-0.0643
>>> assay_result("HMETGNEDYRVGKELAYDGNYKAATIYLMKSIKDDPNNPDAFNMLGFSHRKLGNNDEAYIYYNKALEL")
-0.387
>>> assay_result("HMLGWEDVIQFEEVKGYGQHIWRDGNHLYYVTEEGGIAPQRVVYELPNELFALLESGERTQLEILSKLQ")
-3.11
>>> assay_result("HMHLKRQEAINLGAYLLGAELRIHRLSLEELGSERIDEMLAAINYKTLDDLLADIGLGNRPARFVARQLG")
-1.53
>>> assay_result("HMSRGTRIDPNWQPSPEDRALARAEGFSDPEIDREALQFRDYWLGASGSNAVKLDWSATWRNWVRRAATNF")
0.0774
>>> assay_result("HMPVEHVWHIAENGQTSGPYSKARMGRMAQEGQLTRDTHVWTPGQDGWMRAGDVTELAQLFT")
0.0486
>>> assay_result("HMAVDVNKATAAELDSIKGIGPAISAKILEEKKKGGNFKDWNDLVTRVSGVGEANAAKFSSEGLTVGGAS")
0.0629
>>> assay_result("HMSKTQYTFKEVGSQFQLFAPSTKHTIMISADHPKYGWLTNQDQGRVINVYDTGKMTSSQDYYGLYKEVT")
-0.155
>>> assay_result("HMGSLAVVPSLTGKTLQEAQSKAADYGLALEIEGYVASTAVDYGRIVSQSPDAGFSVKSGSSVKVSVSAG")
0.117
>>> assay_result("HMLQQNRAVEAEQLARKGLSYAQSNIQQAALWRLVAEATEQQGKVDAALNAKNKAMQLEMAG")
0.173

* * *

- Assay Notes: soluble fraction after stress (log2 fold change); higher = more stays soluble; pooled small domains, quantitative proteomics
- Conditions Used: stress: 50 degC
Reported Endpoint: soluble fraction (log2)

>>> assay_result("HMYAGTWTTESGQWKYRQDDGTYAKGWLQDTDGRWYYFDANGRMLSNTATPDGYQVGEDGAWVNH")
-0.196
>>> assay_result("HMSIESMVGRFGVVTKDVVANEMAGKVKVGREEFRATADIAVSSGTKVKVTHAEGITLTVVPE")
0.378
>>> assay_result("HMNLPTSGVDALTPAERRVARMAGDGQSNREIAQTLFVTRKTVEIHLTSVYRKLGIASRAELSARL")
-2.6
>>> assay_result("HMKTTKRERARAKLIQLLENEDRPAKEIYAGLGDIGVGSRTVEKVKKELQVTTYRSGGSWYWSLPKP")
-0.169
>>> assay_result("HMGAKEHLAGETLRMAVELLSEKQGIPAEQALIRFISSPVYDALYDLDTGMWTQGPTRLLEAFEALE")
-1.7
>>> assay_result("HMDLDIGSVLQASRGEKKISLRQLAERTGLTASMLSQIERNLVNPSINTLKVIAAALEIPMYKFFMG")
-0.835
>>> assay_result("HMANEGWDIYKLDIRNHKQPNGEYYSEKEIQSTINNTFGKGSFNVDWKKYEKDKEYREKTNYYYFQAKYFV")
-0.19
>>> assay_result("HMKSTPMYATAIVNIRSKAGTDSEILGKLNPSEEISVISSENGWSKVSYNGKEAYISSNYLSNAKP")
-0.175
>>> assay_result("HMGQELTMPDLKSMSRSNAEEKLKKMGLKLGAVFEENAKEPAGTVINQDPRSGSKITKGQTVDITVSLGEK")
0.131
>>> assay_result("HMNYIGADAAKNMAAADAQVDTANASFSGANLGEKNGLSYYQVDFTANGREYHYAIDAMTGTVIESSSAAS")
0.124
>>> assay_result("HMSVKYLQIYHAIREKILSNEYAINQQLPDEITLTKEFNSSRMTVKKALDLLVSEGLIFRKRGQGTFVLSR")
-2.27

* * *

- Assay Notes: soluble fraction after stress (log2 fold change); higher = more stays soluble; pooled small domains, quantitative proteomics
- Conditions Used: stress: 50 degC
Label Met when soluble fraction (log2) >= -0.08; otherwise Not met.

>>> class_name("HMYDFGVILQKLRKEKGFTQEQLARLIHKESSIISRYEKGLQNPTFETVKEFAAIFNVSMDYLAG")
"Not met"
>>> class_name("HMATETMGMIIRRLRREHGLTQEELAASIGVTAQAVSKWEKDLGMPDISQIVPLAGAFNVRTDVLFGLE")
"Not met"
>>> class_name("HMSGSIIQQAENLERQFGDTREAILGTLSDPKMSEEILETLMERYNKQHGTNWDKNTWAEEWAKANK")
"Met"
>>> class_name("HMNVKVSVDDIARPGLMASGRVTFADGNRGMWYVDEMGRLGIDPEVEGYQPSEADIQAFQRELQSVMES")
"Met"
>>> class_name("HMQKLLGPFEDFVKIKLDKYPDTKAAQMHDWLKEHYPDFPEVTPKTVYNFVMYVRQRHNIPIPD")
"Met"
>>> class_name("HMTKYVEGQKYVFEFRDGTITIGTYLRTGEGNIYIKDLSGEDIYIPKIMIAQIHLATDDNVKGDEFWF")
"Not met"
>>> class_name("HMGSLRSALDGIPGIGEQYQKRLLAQFGSVKAMRSASVEDFEAVRGIGRAKAQALYDALHAG")
"Not met"
>>> class_name("HMYNTDAMGVRIGELRRAKGLTQEAFAKTLGISAQAVSKWETGLGFPDISLLPMIAETLGTKIETLFGAE")
"Not met"
>>> class_name("HMKRITKKQLSQQLEQFFSSQPGKKLTLKDIFRALHLDTHPLKMLAMDIMEEMAWDDFITKKGENAYQLNT")
"Not met"
>>> class_name("HMQGWREWDYSADLYINARVGGKIEPTENSPISRVYELDEPVSVVAFTSTRYFKLSSGDYIFAEYLSAQKV")
"Not met"
>>> class_name("HMEYQTVEKSEAEQIIQELEKAERLALKVYSKNDIITGISVSDGKSYYFSAELVPMLKNIIENPEIKIL")
"Not met"
>>> class_name("HMNMIGDVIRNLRTVSSMTQTELGQRMGVIKQTISNWEKNISTPSIDAIVKLSSIFNVPTDYLL")
"Not met"
>>> class_name("HMNNIIEQIKADIKKLEEKLDKSSENALNKLEKDYSSLSTESKKKLDDAGYGARIKALRVKFAALSTQ")
"Met"
>>> class_name("HMTGDISRALDQLPADMRTVLILYALEKQRYEDIAQITGVSVGTVKSRLNRARQKLAAILANQREQNE")
"Not met"
>>> class_name("HMSASLPAAVEDPDLPYRVGAKLRHARWGEGLLVGIQREGSDVIATVHFASVGRKRLSLQYAHLEE")
"Not met"
>>> class_name("HMENSLLSESLAKIYIKTHRYERAYEILSRLSLAVPEKNAYFADQLRFLRKVMLAESFRKQHS")
"Met"

* * *

- Assay Notes: soluble fraction after stress (log2 fold change); higher = more stays soluble; pooled small domains, quantitative proteomics
- Conditions Used: stress: 50 degC
# maps each entry to its soluble fraction (log2)
Reported Endpoint: soluble fraction (log2)

>>> assay_result("HMKEILTNESIIQFVKDKVSEEQIIYKINNSPIDFKLDVNSMVSLAKQNVSSTIIIAMENAMNN")
-0.256
>>> assay_result("HMIAASPVGGIDRVLELLDARGQRVAWIEASGTEGGQRLRLGWIDAQGAERHGAWVPWSADDLLLYA")
-0.387
>>> assay_result("HMTTMTTGQRIAAKRKEQGLSQENLGEQLGVSRQAIYKWESDASLPDIDKLIALSRLFGVSTDYLLLE")
-0.41
>>> assay_result("HMEKPYTPPANLNEIQSYEELSKAVQYYNKVKDAATTDADRLKAQQSIDTLEDMRKAWDAASST")
0.072
>>> assay_result("HMFGSKDVKRAIEDYAAAMSSQPRALSAPQRKVLIRHLATSGLLQLRGAAKIVADELGISRASVYNALKV")
-0.436
>>> assay_result("HMAGASQAVKAQLRLREMILAGELPGGARIAELTLVEKLGVSRTPIRAALMRLEQEGLLHRLPGGGYAVRT")
-0.52
>>> assay_result("HMAGTAMRATTAVNVRSGAGTNYSRIGLLQAGEQIQALSSKNGWTQVSYKGRTGYVASAYLASL")
-0.309

* * *

- Assay Notes: soluble fraction after stress (log2 fold change); higher = more stays soluble; pooled small domains, quantitative proteomics
- Conditions Used: stress: 50 degC
# maps each entry to its soluble fraction (log2)
Reported Endpoint: soluble fraction (log2)

>>> assay_result("HMVINVKEILERIKLVKGFHTQIEIARFLGVSKGTISNWLARNSVDFPLVISKLDGVDLNWLFTGIGMPQ")
-3.18
>>> assay_result("HMVSRAFEEETVKRAESGNQEAALFALELAIREIEHSYEKSKIIDYFVSKVRLFLDNGVSLERALGIH")
0.0637
>>> assay_result("HMDVNPETLSYYIERADISLDELRTSVKGIDLFLTGEKQPTFNQISNIAKKLNIPTGLLLINKPIEI")
-0.375
>>> assay_result("HMELGWYVRLRRRELGLSVTALAEKAGMSQSYLSQIETGDRGNPSPESLRSLAEALEVSPRELESLV")
-0.331
>>> assay_result("HMTVAQEIEARRATIRSSDPAEMARFIRWLIMEGHTEPAADELKKYAENFPEASATTKQLQALLAAR")
-0.177
>>> assay_result("HMRSYTPGSAFRLSSVPVYNAETGPSIGVRSGTYYIHSLPVSNGRIRMTNLISRVGKPGQVSFWVEISR")
-2.45
>>> assay_result("HMRDITAQSNASELYFEERDLEAFIEKLERLYPEIRYVNRLMIHSWGQQVVRFFDPDGNLIEVGTP")
-0.145
>>> assay_result("HMVTNELFGTRLRAFRKEKGLTIEQLAERVGLSPNYLGDIERGKKLPSMATFIRLVNELDISADEL")
-0.293
>>> assay_result("HMARSVAEFVERGRSGGSLERPKLQRMLEYIQDRPVDFVIVHKIDRLARNRADDAAITKTIRGAGAYLVST")
-0.0402
>>> assay_result("HMGNKWKPIILYLLSNGSMRFGMLNALIPTISKKVLTNQLKELENDGLLLRQSFAEIPPRVEYSLTEKA")
-1.58
>>> assay_result("HMINFLSKREIEVLRLVADGLSNRDVGQYLFISESTVKRHLSTIYEKLAVKSRTQAIDHARRADL")
-3.91
>>> assay_result("HMDQDIILHKVQPGDTLSKILLHYHSHQDRNKLQGLIAESMTANPFIKNPDLIYPGQLIQVPVPA")
0.05
>>> assay_result("HMEQVPEAVGRRVRQARSDRGWTLDQLAERSEVSRRMIVNVEAGTSNASIATLLRLATALNVGLAELVA")
-1.41
>>> assay_result("HMIPDGKWKEDPISDGQKNFINSLIEQAIDAGQDELGAEAKKYLASGEATKGNASAMIDKLKSAL")
0.392
>>> assay_result("HMTSNKTVPYSELKGLISTGKIEYVGIGNTQIRAVSKSGAGIVTYTARRVIPDDTLIPELEKNGIAYGGI")
-0.108
>>> assay_result("HMVMVVDVLKALSNNSSDKFFNTSISNAIKAQEDSQEDFVTLFGIEYEKLSPNNGLAVIFTSQ")
0.425

Origin of values: the domain aggregation screens of Martell et al. (2025)
